All values here come from patent US20240269304A1.

- Tested on: H1650 cells
- measurement.description: CellTiterGlo (CTG) cell viability, 3D, 120 h, H1650 (Example 8)
- Type: cell-based, human
- test.parameters: Homo sapiens, NCI-H1650, H1650 3D, experiment n1, read-out: H1650 3D CTG IC50 n1
property.label: IC50 (nM)

Worked examples follow.
| structure.as.smiles | endpoint.unit | IC50 |
| --- | --- | --- |
| Cc1c(Nc2nc3ccccc3s2)nnc2c1CCCN2c1ccc(-c2cnn(C[C@]34C[C@@]5(C)C[C@](C)(C[C@](CCCN6CCCC6)(C5)C3)C4)c2C)c(C(=O)O)n1 | nM | 3.3 |
| Cc1c(Nc2nc3ccccc3s2)nnc2c1CCCN2c1nc(C(=O)O)c(CCCOc2ccc(C#CCN3CCC(F)(F)CC3)cc2F)s1 | nM | 0.98 |
| Cc1c(Nc2nc3ccccc3s2)nnc2c1CCCN2c1ccc(-c2cnn(CC34CC5(C)CC(C)(CC(CCCN(C)CCCO)(C5)C3)C4)c2C)c(C(=O)O)n1 | nM | 0.84 |
| Cc1c(Nc2nc3ccccc3s2)nnc2c1CCCN2c1ccc(-c2cnn(C[C@]34C[C@]5(C)C[C@](C)(C3)C[C@@](OCCNCC(CO)CO)(C5)C4)c2C)c(C(=O)O)n1 | nM | 4 |
| Cc1c(Nc2nc3ccccc3s2)nnc2c1CCCN2c1ccc(-c2cnn(C[C@]34C[C@]5(C)C[C@](C)(C3)C[C@@](OCCN3CCN(C(C)C)CC3)(C5)C4)c2C)c(C(=O)O)n1 | nM | 0.24 |

1. COCCCN(C)CCOC12CC3(C)CC(C)(CC(Cn4ncc(-c5ccc(N6CCCc7c6nnc(Nc6nc8ccccc8s6)c7C)nc5C(=O)O)c4C)(C3)C1)C2
2. Cc1c(Nc2nc3ccccc3s2)nnc2c1CCCN2c1ccc(-c2cnn(CC34CC5(C)CC(C)(C3)CC(OCCNCC(=O)O)(C5)C4)c2C)c(C(=O)O)n1
// pick larger IC50 from pair: 1 vs 2 Bench note: the answer is the label of the chosen record.
2
(2: 6.54 nM, 1: 0.26 nM)
